These entries and their values trace back to PubChem BioAssay (Tox21).

assayInfo: qHTS assay to identify small molecule antagonists of the estrogen related receptor (ERR) signaling pathway - cell viability counter screen (AID 1224818);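 note: viability measured after 17.5 h of compound exposure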
recordedConditions: ERR reporter cell line viability counter screen; series mostly up to 46.1 µM
Results filed as inconclusive are left out. Calls of active or inactive are those of the source. Calls come from the whole dose curve; as a rule, active = well fitted cell-killing curve with a large enough effect in the repeat runs; inconclusive = weak or mixed curves; inactive = flat fitted curve, though single readings scatter.
reportedMetric: outcome

Look over these answered cases.
Input: Quickly give me recorded outcome for Nc1ncnc2c1ncn2[C@@H]1O[C@H](COP(=O)(O)OP(=O)(O)OP(=O)(O)OP(=O)(O)OC[C@@H]2O[C@H](n3cnc4c(N)ncnc43)[C@@H](O)C2O)C(O)[C@H]1O (some centres not stated)
Output: inactive

Input: Quickly give me recorded outcome for C[C@@H](N)C1CCC(C(=O)Nc2ccncc2)CC1 (some centres not stated)
Output: inactive

Input: Quickly give me recorded outcome for Nc1nc(Nc2ccccc2)nc2c1ncn2[C@@H]1O[C@H](CO)C(O)[C@H]1O (some centres not stated)
Output: inactive

Input: Quickly give me recorded outcome for NS(=O)(=O)c1cccc2c1c([N+](=O)[O-])cc1nc(O)c(O)nc12
Output: inactive

New cases:
Input: Quickly give me recorded outcome for COC(=O)[C@H]1[C@H]2C[C@H]3c4[nH]c5ccccc5c4CCN3C[C@H]2CC[C@@H]1O
Output: inactive

Input: Quickly give me recorded outcome for CSc1nc(N)c2ncn([C@@H]3O[C@H](COP(=O)(O)OP(=O)(O)O)C(O)[C@H]3O)c2n1 (some centres not stated)
Output: inactive

Input: Quickly give me recorded outcome for Nc1nc(Cl)nc2c1ncn2[C@@H]1O[C@H](COP(=O)(O)OP(=O)(O)OP(=O)(O)O)C(O)[C@H]1O (some centres not stated)
Output: inactive

Input: Quickly give me recorded outcome for Cn1c(=O)[nH]c2ncn(C)c2c1=O
Output: inactive

Input: Quickly give me recorded outcome for O=C(O)C1CCNCC1
Output: inactive

Input: Quickly give me recorded outcome for S=C(S)OC1CC2CC1C1CCCC21 (configuration not stated)
Output: inactive

* * *

assayInfo: Caspase-3/7 induction in HepG2 cells by small molecules, qHTS assay (AID 1346978); note: nearly all actives have a fitted effect of over 15% in size
recordedConditions: HepG2 caspase-3/7 activation, Caspase-Glo luminescence, 17 h; series mostly up to 92.4 µM
Results filed as inconclusive are left out. Active and inactive are the calls of the source. The call rests on the fitted dose curve; in most records, active means well fitted activation curve with a large enough effect in the repeat runs; inconclusive means weak or mixed curves; inactive means flat fitted curve, though single readings scatter.
One label from this list, please: active, inactive

Input: Write down the call the test reported for this compound. Item: COc1ccc(OC)c(N=Nc2c(O)ccc3ccccc23)c1
Output: inactive

Input: Write down the call the test reported for this compound. Item: Cc1c[nH]c(=O)[nH]c1=O
Output: inactive

Input: Write down the call the test reported for this compound. Item: C=COCCCC
Output: inactive

Input: Write down the call the test reported for this compound. Item: COCCC(=O)OC
Output: inactive

Input: Write down the call the test reported for this compound. Item: Cc1ccc(N=Nc2c(O)ccc3ccccc23)c(C)c1
Output: inactive

Input: Write down the call the test reported for this compound. Item: C=C(C)CCO
Output: inactive

Input: Write down the call the test reported for this compound. Item: O=C(O)C[C@H](O)C[C@H](O)/C=C/c1c(C2CC2)nc2ccccc2c1-c1ccc(F)cc1
Output: active

Input: Write down the call the test reported for this compound. Item: CN(C[C@@H](CC[N+]12CCC(C3CCCCC3)(CC1)CC2)c1ccc(Cl)c(Cl)c1)C(=O)c1cc(C(F)(F)F)cc(C(F)(F)F)c1
Output: inactive

Input: Write down the call the test reported for this compound. Item: Cn1c(=O)[nH]c2ncn(C)c2c1=O
Output: inactive

Input: Write down the call the test reported for this compound. Item: CCCCCCCCSCc1cc(C)c(O)c(CSCCCCCCCC)c1
Output: inactive

New cases:
Input: Write down the call the test reported for this compound. Item: CN1CC[C@H](c2c(O)cc(O)c3c(=O)cc(-c4ccccc4Cl)oc23)[C@H](O)C1
Output: active

Input: Write down the call the test reported for this compound. Item: C/C=C/C(=O)OCC(C)C
Output: inactive
